- tested.on: T1, Chlamydomonas reinhardtii Rubisco holoenzyme (L8S8) (Chlamydomonas reinhardtii, UniProt P00877 3-475)
- T1 construct: Purified from C. reinhardtii strain cMJ030 (sucrose gradient, anion exchange); also called purified Rubisco; Cr L8S8 Rubisco
- experiment.notes: SPR, Rubisco immobilized, peptide at 0-4.0 mM in solution (FIG. 4C)
- Text: FIGS. 4A-4C show the EPYC1 fragment that was used to generate the cryoelectron microscopy structure shown in FIGS. 5A-5D, as well as the binding affinity of the EPYC1 fragment for Rubisco. […] The four nearly identical repeats (Repeats 1-4), flanked by short N- and C- termini are indicated. The dark grey boxes represent the ten RBMs on EPYC1. […]
pKd: −log10 of the molar value.

binder | pKd
TNRVSPTRSVLPANWRQELESLRN (also called EPYC1 peptide; RBM 2 EPYC1 fragment) [24 amino acid EPYC1 fragment spanning RBM 2] | 2.51
